# Tested on: U2OS
# experiment-notes: Incucyte cell viability with U2OS; note: filed as whole numbers so only -1 and 0 and 1 occur
# Format: toxicity, cell-based
# condition-summary: human, 0 h, 10 µM, compound concentration 10 uM, replicate number 2, timepoint 0 hours
Listing: Growth Rate of selected molecules
Just the number, please, no unit after it.

molecule | target | experimental-value
Cc1[nH]c(/C=C2\C(=O)Nc3ccc(S(=O)(=O)N(C)c4cccc(Cl)c4)cc32)c(C)c1C(=O)N1CCN(C)CC1 | U2OS | 0
C[C@@H](c1cccc(CN)c1)n1cc(Cl)cc(C(N)=O)c1=N.Cl | U2OS | 1
COc1ccc(C2(O)OC(=O)C(c3ccc4c(c3)OCO4)=C2Cc2cc(OC)c(OC)c(OC)c2)cc1 (configuration not stated) [PD-156707] | U2OS | 1
CNCCN1CCC(OCc2ccccc2)CC1 | U2OS | 0

IN: Name the recorded Growth Rate for Cl.Cl.c1ccc([C@@H]2C[C@H]2NC2CCNCC2)cc1 .
OUT: 1

IN: Next: O=C(NCCN1CCOCC1)c1ccc2c(c1)C(=O)c1ccc(Nc3ccc(F)c(NC(=O)c4ccccc4)c3)cc1CC2 [FS-694]
OUT: 0

====

# Tested on: Fibroblast
# experiment-notes: Multiplex assay against human fibroblast
# Assay type: toxicity, cell-based
# condition-summary: 24 h, 10 µM, compound concentration 10 uM, replicate 2
Listing: Population Tubulin-Different-Phenotype (%) of selected compounds
Express the result in % but write the number alone.

Below, 3 compounds whose answers are already recorded.
smiles-str | experimental-value
CNCc1ccc(-c2cc(-c3nc(-c4ccc(S(=O)(=O)C(C)C)cc4)cnc3N)on2)cc1 | 11
Cc1csc2c(N[C@@H](C)CN3CCN(S(=O)(=O)c4ccc(Cl)c(Cl)c4)CC3)ncnc12 | 97
CC(C)(O)CNc1ncc(-c2ccnc(Nc3ccnc(Cl)c3)n2)c(CC2CC2)n1 | 100

From here, focus on the item given below.
IN: Form: Entry = C=CC(=O)Nc1cccc(C(=O)Nc2ccc(Nc3cc(-c4[nH]c(SC)nc4C)ccn3)cc2)c1 | System = Fibroblast | Population Tubulin-Different-Phenotype (%) = ____
OUT: 12

====

# Tested on: Fibroblast
# experiment-notes: Multiplex assay against human fibroblast
# Format: toxicity, cell-based
# condition-summary: 12 h, 10 µM, compound concentration 10 uM, replicate 1
# if measured Total Cell Count < 200: rule met  # else: rule not met

compound | target | class
CN(C)C(=O)N[C@H]1CC[C@H](CCN2CCN(c3cccc(Cl)c3Cl)CC2)CC1.Cl [CARIPRAZINE HYDROCHLORIDE] | Fibroblast | rule met

IN: Lab note: Total Cell Count threshold 200. Does this compound come in strictly under it? Cc1[nH]c(/C=C2\C(=O)Nc3ccc(S(=O)(=O)N(C)c4cccc(Cl)c4)cc32)c(C)c1C(=O)N1CCN(C)CC1
OUT: rule met

IN: Next: C=CC(=O)Nc1cc2c(Nc3ccc(F)c(Cl)c3)ncnc2cc1OCCCN1CCOCC1.Cl.Cl [CANERTINIB DIHYDROCHLORIDE]
OUT: rule not met

IN: Next: O=C1NCN(c2ccccc2)C12CCN(CCCOc1ccc(F)cc1)CC2 [SPIRAMIDE]
OUT: rule met

IN: Next: CN(C)C(=O)/C(C#N)=C/c1ccc(-c2nc3cnc4[nH]ccc4c3n2C2CCCCC2)o1
OUT: rule not met

IN: Next: Cc1nc(-c2ccc(-c3ccc(C(=O)N4CCc5cc6c(cc54)C4(CCN(C)CC4)CO6)cc3)c(C)c2)no1 [SB-224289]
OUT: rule not met

IN: Next: C[C@@H](NCCCc1cccc(C(F)(F)F)c1)c1cccc2ccccc12.Cl [CINACALCET HYDROCHLORIDE]
OUT: rule met

IN: Next: OC1(c2ccc(Cl)cc2)CCN(Cc2c[nH]c3ccccc23)CC1
OUT: rule not met

IN: Next: CCN(CC)CCCCNc1ncc2cc(-c3cc(OC)cc(OC)c3)c(NC(=O)NC(C)(C)C)nc2n1 [PD-173074]
OUT: rule not met

IN: Next: CN1CCC[C@@H]1CCO[C@](C)(c1ccccc1)c1ccc(Cl)cc1.O=C(O)/C=C/C(=O)O [CLEMASTINE FUMARATE]
OUT: rule met

IN: Next: Cc1nc(Nc2n[nH]c3c2CN(C(=O)N[C@H](CN(C)C)c2ccccc2)C3(C)C)c2sccc2n1 [PF-03758309]
OUT: rule not met

====

# System: Fibroblast
# experiment-notes: Multiplex assay against human fibroblast
# Format: toxicity, cell-based
# condition-summary: 24 h, 10 µM, compound concentration 10 uM, replicate 2
Threshold rule: Population Mitochondria Different-Phenotype (%) greater than or equal to 30% is Fulfilled; below that, Not fulfilled.

Examples from the recorded data:
compound | class
CN1CCC[C@@H]1CCO[C@](C)(c1ccccc1)c1ccc(Cl)cc1.O=C(O)/C=C/C(=O)O [CLEMASTINE FUMARATE] | Fulfilled
C=CC(=O)Nc1ccc2ncnc(Nc3ccc(OCc4cccc(F)c4)c(Cl)c3)c2c1.Cc1ccc(S(=O)(=O)O)cc1 | Not fulfilled
CN1CCN(c2ccc(OC(F)(F)F)c(Nc3ncc4c(n3)-c3c(c(C(N)=O)nn3CCO)CC4)c2)CC1 | Fulfilled
CNCc1ccc(-c2cc(-c3nc(-c4ccc(S(=O)(=O)C(C)C)cc4)cnc3N)on2)cc1 | Not fulfilled
Cc1csc2c(N[C@@H](C)CN3CCN(S(=O)(=O)c4ccc(Cl)c(Cl)c4)CC3)ncnc12 | Fulfilled
OC1(c2ccc(Cl)cc2)CCN(Cc2c[nH]c3ccccc23)CC1 | Fulfilled

IN: Could you please find out whether C=CC(=O)Nc1cc2c(Nc3ccc(F)c(Cl)c3)ncnc2cc1OCCCN1CCOCC1.Cl.Cl [CANERTINIB DIHYDROCHLORIDE] has Population Mitochondria Different-Phenotype (%) that meets 30% or exceeds it?
OUT: Not fulfilled

IN: Next: CC(C)(O)CNc1ncc(-c2ccnc(Nc3ccnc(Cl)c3)n2)c(CC2CC2)n1
OUT: Fulfilled

IN: Next: Cc1[nH]c(/C=C2\C(=O)Nc3ccc(S(=O)(=O)N(C)c4cccc(Cl)c4)cc32)c(C)c1C(=O)N1CCN(C)CC1
OUT: Fulfilled

IN: Next: Cc1c(-c2ccc(O)cc2)n(Cc2ccc(OCCN3CCCCCC3)cc2)c2ccc(O)cc12
OUT: Fulfilled

IN: Next: C[C@@H](NCCCc1cccc(C(F)(F)F)c1)c1cccc2ccccc12.Cl [CINACALCET HYDROCHLORIDE]
OUT: Fulfilled

IN: Next: COc1cccc([C@@H](C)NCCCc2ccccc2Cl)c1.Cl [TECALCET HYDROCHLORIDE]
OUT: Fulfilled

IN: Next: CCN(CC)CCCCNc1ncc2cc(-c3cc(OC)cc(OC)c3)c(NC(=O)NC(C)(C)C)nc2n1
OUT: Not fulfilled

IN: Next: O=C1NCN(c2ccccc2)C12CCN(CCCOc1ccc(F)cc1)CC2 [SPIRAMIDE]
OUT: Not fulfilled

IN: Next: Cc1nc(-c2ccc(-c3ccc(C(=O)N4CCc5cc6c(cc54)C4(CCN(C)CC4)CO6)cc3)c(C)c2)no1
OUT: Fulfilled

IN: Next: Cc1cc(C)cc(-c2cnc3cc(Cl)c(-c4cccc(O)c4)cc3c2OCCCN)c1
OUT: Fulfilled

IN: Next: Cc1nc(-c2cn3c(n2)-c2ccc(-c4cnn(C(C)(C)C(N)=O)c4)cc2OCC3)n(C(C)C)n1
OUT: Not fulfilled

IN: Next: CN(C)C(=O)N[C@H]1CC[C@H](CCN2CCN(c3cccc(Cl)c3Cl)CC2)CC1.Cl [CARIPRAZINE HYDROCHLORIDE]
OUT: Fulfilled

IN: Next: CC(C)NCC(O)COc1ccc(CCOCC2CC2)cc1.Cl (stereo not drawn) [BETAXOLOL HYDROCHLORIDE]
OUT: Fulfilled

IN: Next: c1cn2cc(-c3ccc4cn[nH]c4c3)nc(Nc3ccc(N4CCOCC4)cc3)c2n1
OUT: Fulfilled

====

Listing: Population Mitotic Cells (%) of selected compounds
# Test system: U2OS
# experiment-notes: Multiplex assay against U2OS
# Type: toxicity, cell-based
# condition-summary: human, 48 h, 10 µM, compound concentration 10 uM, replicate 1
Express the result in % but write the number alone.

IN: Form: Entry = Cc1cc(C)cc(-c2cnc3cc(Cl)c(-c4cccc(O)c4)cc3c2OCCCN)c1 | System = U2OS | Population Mitotic Cells (%) = ____
OUT: 16

IN: Next: CNCc1ccccc1-c1csc([C@H](C)Nc2nc(C)nc3cc(OC)c(OC)cc23)c1
OUT: 1

IN: Next: Cn1cc(-c2[nH]c3cc(NC(=O)[C@H](N)C4CCCCC4)cc4c3c2C=NNC4=O)cn1
OUT: 16

IN: Next: CN1CCN(c2ccc(OC(F)(F)F)c(Nc3ncc4c(n3)-c3c(c(C(N)=O)nn3CCO)CC4)c2)CC1
OUT: 8
